Quick reference: AUC of the listed items.
Test: Pharmacokinetic evaluation in BALB/c nude mice (PO)
Type: in vivo
Details: female, mouse, plasma, 30 mg/kg

{"compound": "C[C@H]1CN(c2cc(S(=O)(=O)NC3(C)CC3)cc3c2n2nc(C(F)F)nc2n3-c2nnc(C(F)F)s2)C[C@H](C)N1 [Compound 065S]", "AUC (µM·h)": 9.21}
{"compound": "C[C@H]1CN(c2cc(S(=O)(=O)NC3(C)CC3)cc3c2n2nc(C(F)(F)F)nc2n3-c2nnc(C(F)F)s2)C[C@H](C)N1 [Compound 065W]", "AUC (µM·h)": 16.4}
{"compound": "CCc1nc2n(-c3nnc(C(F)F)s3)c3cc(S(=O)(=O)NC4(C)CC4)cc(N4C[C@H](C)N[C@@H](C)C4)c3n2n1 [Compound 065R]", "AUC (µM·h)": 9.52}
